compounds and their reported pIC50
Test system: SMN2 Splicing D7 (SMN Δ7 transcript)
Experiment: SMN Quantitative Splicing Assay (qPCR)
Format: cell-based, human
Details: Homo sapiens, Fibroblast, 24 h, SMA patient fibroblasts (GM03813), 2.5 µM to 0.6 nM
pIC50: −log10 of the molar value.

Examples with their reported pIC50 follow.
- compound: "Cc1cc(=O)c2cc(O)c(-c3ncc(N(C)[C@H]4CC5CCC[C@@H](N5)[C@H]4F)nn3)cc2o1"
  target.under.test: "SMN2 Splicing D7 (SMN Δ7 transcript)"
  measurement.kind: "pIC50"
  recorded.result: "7.82 to 11.00"
- compound: "[2H]C([2H])([2H])N(c1cnc(-c2cc3ncn(C([2H])([2H])[2H])c(=O)c3cc2O)nn1)[C@H]1C[C@@H]2CCC(N2)[C@H]1F"
  target.under.test: "SMN2 Splicing D7 (SMN Δ7 transcript)"
  measurement.kind: "pIC50"
  recorded.result: "7.82 to 11.00"
- compound: "CN(c1cnc(-c2cc3c(F)cn(C)c(=O)c3cc2O)nn1)[C@H]1CC2COCC(N2)[C@H]1F (stereo partly shown)"
  target.under.test: "SMN2 Splicing D7 (SMN Δ7 transcript)"
  measurement.kind: "pIC50"
  recorded.result: "7.00 to 7.29"
- compound: "CN(c1cnc(-c2cc3ccn(C)c(=O)c3cc2O)nn1)[C@H]1C[C@]2(C)COC[C@](C)(C1)N2"
  target.under.test: "SMN2 Splicing D7 (SMN Δ7 transcript)"
  measurement.kind: "pIC50"
  recorded.result: "7.82 to 11.00"

Query (compound): CN(c1cnc(-c2cc3ncn(C(F)F)c(=O)c3cc2O)nn1)[C@@H]1C[C@H]2CCC(N2)[C@@H]1F ; field requested: pIC50
7.30 to 7.80

Return reported pIC50; argument: CN(c1cnc(-c2cc3c(F)cn(C)c(=O)c3cc2O)nn1)[C@H]1CC2CC(F)(F)C(C1)N2 (stereo partly shown)
7.82 to 11.00

Entry under review: CCn1ccc2cc(-c3ncc(N(C)C4CC5CCC(N5)[C@H]4F)nn3)c(O)cc2c1=O (stereo partly shown) . Reported pIC50?
7.82 to 11.00

Which value of pIC50 has been reported for Cc1nc2cc(-c3ncc(N(C)[C@@H]4CC5CCC(N5)[C@@H]4F)nn3)c(O)cc2c(=O)n1C (stereo partly shown) in the records?
7.30 to 7.80

Bench note: what pIC50 did [2H]C([2H])([2H])N(c1cnc(-c2cc3c(F)cn(CC)c(=O)c3cc2O)nn1)[C@H]1C[C@@H]2CC[C@@H](N2)[C@H]1F show?
7.82 to 11.00

Looking for the measured pIC50 of CN(c1cnc(-c2cc3c(F)cn(C)c(=O)c3cc2O)nn1)[C@@H]1CC2COCC(N2)[C@@H]1F (stereo partly shown) , can you help?
7.30 to 7.80

# pIC50 lookup, item CN(c1cnc(-c2cc3ccncc3cc2O)nn1)C1CC2CCC(N2)C1F (stereo not shown)
6.30 to 7.00

Query: pIC50; subject: CCc1cc(=O)c2cc(-c3ncc(N(C)[C@H]4C[C@@H]5CCCC(N5)[C@H]4F)nn3)c(O)cc2o1
7.00 to 7.29

# input compound: Cc1cnc2cc(O)c(-c3ncc(N(C)[C@@H]4CC5CCCC(N5)[C@@H]4F)nn3)cc2n1 (stereo partly shown) ; wanted: its pIC50
7.30 to 7.80

What pIC50 value was documented for this compound, [2H]C([2H])([2H])n1ccc2cc(-c3ncc(N(C)[C@H]4CC5CCC(N5)[C@H]4F)nn3)c(O)cc2c1=O (stereo partly shown) ?
7.30 to 7.80

Quick one: pIC50 for CCn1ccc2cc(O)c(-c3ncc(N(C)[C@H]4CC5CC[C@@H](N5)[C@H]4F)nn3)cc2c1=O ?
7.82 to 11.00

Recorded pIC50 for [2H]C([2H])([2H])n1cc(F)c2cc(-c3ncc(N(C)[C@@H]4CC5CC[C@H](N5)[C@@H]4F)nn3)c(O)cc2c1=O , please?
7.82 to 11.00

Give its pIC50 value. Item: CN(c1cnc(-c2cc3c(=O)n(C)cnc3cc2O)nn1)C1CC2CCC(N2)[C@H]1F (stereo partly shown)
7.30 to 7.80

Any idea what its pIC50 is? The compound is CN(c1cnc(-c2cc3occ(C(F)(F)F)c(=O)c3cc2O)nn1)[C@H]1C[C@@H]2CC[C@@H](N2)[C@H]1F
7.30 to 7.80

For the compound CN(c1cnc(-c2cc3cc[nH]c(=O)c3cc2O)nn1)[C@H]1C[C@@H]2CCC(N2)[C@H]1F , what pIC50 is on record?
7.30 to 7.80

What value of pIC50 has been reported for the following compound? CN(c1cnc(-c2cc3ccn(C)c(=O)c3cc2O)nn1)[C@@H]1CC2CC[C@](C)(N2)[C@@H]1F
7.82 to 11.00

Would you mind telling me what pIC50 value was observed for Cc1cc2cc(O)c(-c3ncc(N(C)[C@@H]4CC5CCC(N5)[C@@H]4F)nn3)cc2cn1 (stereo partly shown) ?
7.30 to 7.80

Query: pIC50; subject: CCn1cc(F)c2cc(-c3ncc(N(C)[C@@H]4CC5COCC(N5)[C@@H]4F)nn3)c(O)cc2c1=O (stereo partly shown)
6.30 to 7.00

Look up pIC50 for this compound: CN(c1cnc(-c2cc3cnn(C)c(=O)c3cc2O)nn1)[C@H]1C[C@]2(C)COC[C@](C)(C1)N2
7.82 to 11.00

Recorded pIC50 of CCn1c(C)c(F)c2cc(-c3ncc(N(C)[C@H]4C[C@@H]5CCC(N5)[C@H]4F)nn3)c(O)cc2c1=O , please.
7.82 to 11.00

What measured pIC50 goes with CC(C)n1ncc2cc(-c3ncc(N(C)C4CC5CCC(N5)[C@@H]4F)nn3)c(O)cc2c1=O (stereo partly shown) ?
5.00 to 6.30

Return reported pIC50; argument: Cc1coc2cc(-c3ncc(N(C)C4CC5CCC(N5)[C@H]4F)nn3)c(O)cc2c1=O (stereo partly shown)
7.82 to 11.00

// returns reported pIC50 for input CN(c1cnc(-c2cc3c(F)cn(C)c(=O)c3cc2O)nn1)[C@H]1C[C@@H]2CC[C@@](C)(N2)[C@H]1F
7.82 to 11.00

Data request, read-out pIC50, for [2H]C([2H])([2H])n1ncc2cc(-c3ncc(N(C)[C@H]4C[C@@H]5CCC(N5)[C@H]4F)nn3)c(O)cc2c1=O
7.82 to 11.00
